- experiment.notes: HT29 colon tumor cell growth inhibition, primary screen, imaging, high content imaging, 72 h, CellTiter-Glo (AID 772)
- condition.description: HCS imaging cell count, measured here: ATP CellTiter-Glo viability, at 10 µM, stronger effect = higher value
Among all 3,300 compounds or so, about 20 (0.6%) were called active. Many of the other results were omitted from the sample, so actives are more common in it than they were.
Note to self: use yes (1) only for growth inhibition readings below -10%; a reading exactly at -10% still gets no (0).

{"compound": "O=C(NCCC1=CCCCC1)c1ccc(=O)oc1", "class.label": "no (0)"}
{"compound": "COc1cc2nc(N3CCN(C(=O)c4ccco4)CC3)nc(N)c2cc1OC", "class.label": "no (0)"}
{"compound": "N#CC(C(=O)NC1CCCCC1)c1nc2ccccc2nc1N1CCN(c2ccccc2F)CC1 (stereo unspecified)", "class.label": "yes (1)"}
{"compound": "CC1(C)Cc2c(C#N)c(SCc3nc4ccccc4[nH]3)nc(N3CCOCC3)c2CO1", "class.label": "no (0)"}
{"compound": "COc1cccc(-c2nc(NCCN3CCOCC3)c3ccccc3n2)c1O", "class.label": "no (0)"}
{"compound": "Cc1cc(C)nc(N(C#N)CC(=O)N(c2ccccc2)C(C)C)n1", "class.label": "yes (1)"}
{"compound": "COc1cccc(-c2nnc3sc(-c4ccc(Cl)cc4)nn23)c1", "class.label": "yes (1)"}
{"compound": "COc1cc2nc(N3CCN(C(=O)C4CCCO4)CC3)nc(N)c2cc1OC (stereo unspecified)", "class.label": "yes (1)"}
{"compound": "CCCCCNC(=O)C(C#N)c1nc2ccccc2nc1N1CC(C)OC(C)C1 (stereo unspecified)", "class.label": "yes (1)"}
{"compound": "CCCCCSc1nc(N2CCOCC2)c2c(c1C#N)CC(C)(C)OC2", "class.label": "no (0)"}
{"compound": "CC1(C)Cc2c(C#N)c(SCCOc3ccccc3)nc(N3CCOCC3)c2CO1", "class.label": "yes (1)"}

====

- experiment.notes: HT29 colon tumor cell growth inhibition, primary screen, imaging, high content imaging, 72 h, CellTiter-Glo (AID 772)
- condition.description: HCS imaging cell count, at 10 µM
Screen size: about 3,300 compounds; about 20 (0.6%) were called active.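 How the source made its calls: active means growth inhibition above 90%, meaning viable cell count cut by more than 90% versus vehicle controls; inactive means growth inhibition below 90%.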 The sample holds actives, similar compounds and a random draw of the others, so the mix is not that of the screen.
Labels: YES (active), NO (inactive)

{"compound": "CC(=O)C1=C(NC(=O)c2ccccc2F)C[C@@H]2[C@H]1C2(C)C", "class.label": "NO"}
{"compound": "C=CCOC(=O)C1=C(C)NC(SCC(=O)Nc2ccc(C)c(Cl)c2)=C(C#N)C1c1ccco1 (stereo unspecified)", "class.label": "NO"}
{"compound": "CCOC(=O)c1sc(-n2[nH]c(C)cc2=O)nc1C", "class.label": "NO"}
{"compound": "CN1CCN(c2ncnc3c2[nH]c2ccc(F)cc23)CC1", "class.label": "NO"}
{"compound": "N#Cc1c(N)nc(SCc2ccccn2)c(C#N)c1-c1cccs1", "class.label": "NO"}
{"compound": "CC1CCN(c2oc(-c3ccccc3Cl)nc2C#N)CC1", "class.label": "NO"}
{"compound": "CC(C)N=c1cc2n(-c3ccc(Cl)cc3)c3ccccc3nc-2cc1Nc1ccc(Cl)cc1", "class.label": "NO"}
{"compound": "CCCCSc1nc(N)c(C#N)c(-c2cccs2)c1C#N", "class.label": "YES"}
{"compound": "Cc1ccc2[nH]c3c(N4CCN(Cc5ccc6c(c5)OCO6)CC4)ncnc3c2c1", "class.label": "NO"}
{"compound": "CCN(CC)C(=O)CSc1nc2ccccc2c(=O)n1CC1CCCCC1", "class.label": "NO"}
{"compound": "Cc1ccc(OCC(=O)NCC(=O)n2nc(C)cc2C)cc1", "class.label": "NO"}
